Kindly state pull-down binding Z-score for each of the entries shown.
- Tested on: TO-3-N3 (biotin conjugate)
- method: pull-down binding Z-score (relative to library population); higher = stronger binding
- reportedConditions: RNA library: Library-2
Numbers only.

residueString	pull-down binding Z-score
CAUGCAUGUGUCUAGAAAUAUGUUUU [hsa-mir-507]	-0.147

Go through the items and report each one's pull-down binding Z-score.
1. UGAUCAUUAUAUGUAUGAUGAGAUCAU [hsa-mir-4528]
2. CUGACAAAGUUUUCAG
3. CCUAUCAAUGG [IAV_invivo_PB2_1_Motif_26+IAV_invivo_PB2_1_Motif_26]
4. CGGCGGCGGCGGCGGCGGCGGCGGCGGCGGCGGCGGCGGCGGCGGCGG [G4_r(CGG)16]
5. GUUGGCUCAAGAAAGGGAGAUAGAUGGUAGCCC [hsa-mir-6884]
6. GACGAUUUGAAUUAAUAAAUUC [hsa-mir-579]
7. AGUCAUAACAAGAGAAGUGGGUUUUGUCGUGCCUGGUUUGCCUGGCACGAUAUUACGCACAACUAAUGGUGACU [DMSMaPseq_invitro_SARS-CoV-2_Motif_162]
8. UUCAGCCUAAAGCAAUGAGAAGCCUCUGAAAGGCUGA [hsa-mir-1827]

// result
[-0.532, 0.631, 0.191, 8.23, 1.71, 0.329, -0.612, -0.198]
